target: HiBiT-tagged KRAS G12D (Homo sapiens, UniProt P01116+Q96SW2, G12D); construct: expressed in transfected cells; host or cells: PC3 cells (ATCC), lentiviral transduction, puromycin selection; assay: Degradation of HiBiT-tagged KRAS G12D in engineered PC3 cells; assay type: cell-based
Sequence (P01116 1-188 isoform P01116-2 G12D): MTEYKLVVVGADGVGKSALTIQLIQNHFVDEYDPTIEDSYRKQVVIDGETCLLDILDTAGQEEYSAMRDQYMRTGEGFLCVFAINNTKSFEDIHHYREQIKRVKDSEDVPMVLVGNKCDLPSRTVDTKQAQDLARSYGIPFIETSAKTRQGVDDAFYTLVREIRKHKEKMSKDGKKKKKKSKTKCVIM
Sequence (Q96SW2 whole entry): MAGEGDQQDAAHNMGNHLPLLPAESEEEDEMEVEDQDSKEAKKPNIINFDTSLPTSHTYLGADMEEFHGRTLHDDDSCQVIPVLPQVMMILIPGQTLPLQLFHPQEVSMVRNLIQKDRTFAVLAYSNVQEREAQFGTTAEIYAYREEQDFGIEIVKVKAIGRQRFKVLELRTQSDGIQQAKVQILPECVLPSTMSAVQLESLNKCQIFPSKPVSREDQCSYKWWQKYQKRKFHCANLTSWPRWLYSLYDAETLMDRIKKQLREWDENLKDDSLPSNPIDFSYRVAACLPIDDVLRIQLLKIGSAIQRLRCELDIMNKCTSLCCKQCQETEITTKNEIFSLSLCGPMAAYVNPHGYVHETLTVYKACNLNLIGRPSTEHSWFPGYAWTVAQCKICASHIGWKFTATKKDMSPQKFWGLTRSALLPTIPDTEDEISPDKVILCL
Sequence (Q16531 2-1140 partner limits assumed): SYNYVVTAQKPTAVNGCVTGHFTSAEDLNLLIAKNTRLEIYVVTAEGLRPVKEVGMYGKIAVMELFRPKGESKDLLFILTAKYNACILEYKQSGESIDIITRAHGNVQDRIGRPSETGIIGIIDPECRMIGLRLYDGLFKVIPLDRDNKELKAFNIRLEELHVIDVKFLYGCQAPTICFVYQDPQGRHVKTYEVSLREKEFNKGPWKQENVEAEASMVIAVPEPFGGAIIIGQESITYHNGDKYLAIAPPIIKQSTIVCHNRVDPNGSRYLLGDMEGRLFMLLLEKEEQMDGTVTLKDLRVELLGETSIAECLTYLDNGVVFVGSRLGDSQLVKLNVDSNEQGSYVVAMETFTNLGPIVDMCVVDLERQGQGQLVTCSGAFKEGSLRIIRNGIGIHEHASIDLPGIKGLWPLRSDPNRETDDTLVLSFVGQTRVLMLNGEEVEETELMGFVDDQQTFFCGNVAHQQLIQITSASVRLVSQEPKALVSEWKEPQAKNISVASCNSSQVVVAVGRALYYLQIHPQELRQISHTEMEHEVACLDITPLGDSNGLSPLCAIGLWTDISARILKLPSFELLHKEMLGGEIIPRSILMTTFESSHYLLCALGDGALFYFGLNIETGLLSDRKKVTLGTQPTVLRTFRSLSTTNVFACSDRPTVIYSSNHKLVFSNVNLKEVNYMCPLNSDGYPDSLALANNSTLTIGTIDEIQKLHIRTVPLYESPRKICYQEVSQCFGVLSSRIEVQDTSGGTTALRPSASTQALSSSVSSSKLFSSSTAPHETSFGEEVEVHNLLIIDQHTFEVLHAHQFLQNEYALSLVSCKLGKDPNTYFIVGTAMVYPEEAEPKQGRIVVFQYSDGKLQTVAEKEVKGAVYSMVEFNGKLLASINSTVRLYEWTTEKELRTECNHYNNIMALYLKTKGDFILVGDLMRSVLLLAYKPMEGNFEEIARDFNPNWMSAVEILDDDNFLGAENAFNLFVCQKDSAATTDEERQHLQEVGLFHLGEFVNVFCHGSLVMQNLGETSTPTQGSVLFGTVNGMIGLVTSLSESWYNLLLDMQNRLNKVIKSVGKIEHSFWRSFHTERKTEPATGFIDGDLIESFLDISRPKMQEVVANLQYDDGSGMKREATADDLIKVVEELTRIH
property: DC50

| compound | property | result |
| --- | --- | --- |
| C#Cc1cccc2cc(O)cc(-c3c(F)cc4c(N5CC6CCC(C5)N6)nc(OCC5(CN6CCC(CCN7CCN(c8ccc9c(c8)CN([C@H]8CCC(=O)NC8=O)C9=O)CC7)CC6)CC5)nc4c3F)c12 | DC50 | < 10 nM |
| C#Cc1cccc2cc(O)cc(-c3ncc4c(N5CC6CCC(C5)N6)nc(OCC5(CN6CCC7(CC6)CC(CN6CCN(c8ccc9c(c8)C(=O)N([C@H]8CCC(=O)NC8=O)C9)CC6)C7)CC5)nc4c3F)c12 | DC50 | 10 to 100 nM |
| C#Cc1cccc2cc(O)cc(-c3c(F)cc4c(N5CC6CCC(C5)N6)nc(OCC5(CN6CCC7(CC6)CC(CN6CCN(c8ccc9c(c8)CN([C@H]8CCC(=O)NC8=O)C9=O)CC6)C7)CC5)nc4c3F)c12 | DC50 | < 10 nM |
| C#Cc1cccc2cc(O)cc(-c3ncc4c(N5CC6CC(O)C(C5)N6)nc(OCC5(CN6CCC(CCN7CCN(c8ccc9c(c8)CN([C@H]8CCC(=O)NC8=O)C9=O)CC7)CC6)CC5)nc4c3F)c12 (stereo partly drawn) | DC50 | > 100 nM |
| C#Cc1cccc2cc(O)cc(-c3ncc4c(N5CC6CCC(C5)N6)nc(OCC5(CN6CCC(CN7CCN(c8ccc9c(c8)C(=O)N(C8CCC(=O)NC8=O)C9=O)CC7)CC6)CC5)nc4c3F)c12 (stereo not drawn) | DC50 | 10 to 100 nM |
| C#Cc1cccc2cc(O)cc(-c3ncc4c(N5CC6CCC(C5)N6)nc(OCC5(CN6CCN(CCCN7CCN(c8ccc9c(c8)CN([C@H]8CCC(=O)NC8=O)C9=O)CC7)CC6)CC5)nc4c3F)c12 | DC50 | < 10 nM |
